Values from PubChem BioAssay AID1117319

inhibition values, listed per item
Target: Virion infectivity factor (Human immunodeficiency virus type 1 group M subtype B (isolate BH10)) + Virion infectivity factor (Human immunodeficiency virus type 1 group M subtype B (isolate BRU/LAI)) + Virion infectivity factor (Human immunodeficiency virus type 1 group M subtype B (isolate PCV12)) + Virion infectivity factor (Human immunodeficiency virus type 1 group M subtype B (isolate HXB2)) + DNA dC->dU-editing enzyme APOBEC-3G (Homo sapiens) (UniProt P69720+P69721+P69722+P69723+Q9HC16)
Assay: inhibitors of Vif binding to APOBEC3G peptide, primary screen, biochemical, TR-FRET, GST-Vif 1-94, biotin-A3G peptide, dose response retest (AID 1117319);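 also: Vif residues 1-94 fused to GST binding biotinylated APOBEC3G peptide 110-148; 0% = full assay without inhibitor and 100% = GST in place of GST-Vif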
Settings: hits give high values
The campaign covered roughly 260,000 compounds. About 1,500 (0.58%) were called active. Not shown: some 5% with an inconclusive outcome. The list is a sample of the results. Results with a measured potency or affinity are listed apart.
Provide the reading as a plain figure in %.

Consider the following illustrative entries.
Cc1ccc(C)c(/C(O)=C2\C(=O)C(=O)N(CCCN3CCOCC3)C2c2cccnc2)c1 (stereo unspecified)
-1.34
CCn1c(COc2ccc3c(c2)OCO3)nnc1SCC(=O)O
-4.1
CCOC(=O)c1cc(C)n(-c2c(C)n(C)n(-c3ccccc3)c2=O)c1C
2.99
CC(=O)NS(=O)(=O)c1ccc(NC(=O)c2ccc(-n3nc(C)cc3C)cc2)cc1
0.12

Recorded inhibition for COc1ccc2c(=O)c3c(=O)n(Cc4ccco4)c(-c4ccccc4)nc3oc2c1 , please?
-5.44

Item O=C(NCc1ccccc1F)c1ccc(S(=O)(=O)NCc2ccco2)cc1 has what recorded inhibition?
1.91

Using the record for Cc1ccsc1C(=O)C1CCCN(Cc2cn(C)nc2-c2ccccc2)C1 (stereo unspecified) , report its inhibition.
-6.7

inhibition for O=[N+]([O-])c1ccc(O)c(C2=NNC(c3ccccc3F)C2)c1 (stereo unspecified) ?
13.2

Reported inhibition for COc1ccc2c(=O)c3c(=O)n(Cc4ccco4)c(C(C)C)nc3oc2c1 : what is it?
-5.33

Need inhibition, item COc1ccc2c(=O)c3c(=O)n(Cc4ccco4)c(-c4ccc(C)cc4)nc3oc2c1
-32.5
